- TEST_SYSTEM: full-length activated BTK (wildtype) (Homo sapiens (Human), UniProt Q06187)
- Sequence (Q06187 whole entry): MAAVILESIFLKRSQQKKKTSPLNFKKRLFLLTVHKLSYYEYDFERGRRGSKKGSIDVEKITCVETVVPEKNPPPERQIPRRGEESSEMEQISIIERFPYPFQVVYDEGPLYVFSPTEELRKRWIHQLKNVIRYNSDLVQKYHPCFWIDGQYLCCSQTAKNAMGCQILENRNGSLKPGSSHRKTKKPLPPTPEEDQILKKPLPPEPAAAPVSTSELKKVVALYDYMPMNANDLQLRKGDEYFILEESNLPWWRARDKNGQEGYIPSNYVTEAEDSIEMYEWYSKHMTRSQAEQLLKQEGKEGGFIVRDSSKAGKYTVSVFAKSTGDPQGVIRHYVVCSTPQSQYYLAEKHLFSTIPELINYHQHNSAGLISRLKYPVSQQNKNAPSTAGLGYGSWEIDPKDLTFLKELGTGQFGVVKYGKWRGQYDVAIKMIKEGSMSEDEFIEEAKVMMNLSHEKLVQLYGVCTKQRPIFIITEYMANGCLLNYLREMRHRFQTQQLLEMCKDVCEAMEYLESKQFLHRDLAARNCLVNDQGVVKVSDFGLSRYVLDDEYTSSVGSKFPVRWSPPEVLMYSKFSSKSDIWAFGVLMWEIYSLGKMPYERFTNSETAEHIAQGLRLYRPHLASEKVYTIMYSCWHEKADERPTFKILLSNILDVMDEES
- TEST_NAME: AlphaScreen assay, wild-type BTK
pIC50: −log10 of the molar value.
pIC50 reference
RECORDED_ENDPOINT: pIC50

O=C(Nc1ccccc1)c1ccc(C(=O)c2c[nH]c3ncnc(N[C@@H]4CC[C@@H](CO)OC4)c23)c(Cl)c1: 6.74
O=C(Nc1ccccc1)Nc1ccc(Cl)c(C(=O)c2c[nH]c3ncnc(N[C@@H]4CC[C@@H](CO)OC4)c23)c1: 8.09
COCC(=O)Nc1cccc(C(=O)c2c[nH]c3ncnc(N[C@@H]4CC[C@@H](CO)OC4)c23)c1: 6.13
CN1C[C@H](CNc2ncnc3[nH]cc(C(=O)c4ccc(Oc5ccccc5)cc4Cl)c23)C[C@H]1CO [Compound I-370e]: 7.23

---

- TEST_SYSTEM: full-length activated BTK mutant C481S (Homo sapiens (Human), UniProt Q06187, C481S)
- Sequence (Q06187 whole entry C481S): as the sequence (Q06187 whole entry) above, with C481S counted along it
- TEST_NAME: AlphaScreen assay, BTK mutant C481S
Item-by-item account of IC50
RECORDED_ENDPOINT: IC50 (nM)

O=C(c1ccc(NC(=O)C2(c3ccccc3)CC2)cc1Cl)c1c[nH]c2ncnc(N[C@@H]3CC[C@@H](CO)OC3)c12 [Compound I-640]: 203
O=C(c1cc(C(=O)N2CCc3ccccc3C2)ccc1Cl)c1c[nH]c2ncnc(N[C@@H]3CC[C@@H](CO)OC3)c12 [Compound I-625]: 170
O=C(Nc1ccc(Cl)c(C(=O)c2c[nH]c3ncnc(N[C@@H]4CC[C@@H](CO)OC4)c23)c1)c1ccccc1 [Compound I-601]: 116
O=C(c1ccc(C(=O)N2CCOCC2)cc1Cl)c1c[nH]c2ncnc(N[C@@H]3CC[C@@H](CO)OC3)c12 [Compound I-611]: 1510
C=CC(=O)N1CCCC(Nc2ncnc3[nH]cc(C(=O)c4ccc(Oc5ccccc5)cc4Cl)c23)C1 (racemic) [Compound I-321r]: 179
O=C(Nc1ccccc1)c1ccc(Cl)c(C(=O)c2c[nH]c3ncnc(N[C@@H]4CC[C@@H](CO)OC4)c23)c1 [Compound I-631]: 177

---

- TEST_SYSTEM: full-length activated BTK (wildtype) (Homo sapiens (Human), UniProt Q06187)
- TEST_NAME: AlphaScreen assay, wild-type BTK
pIC50: −log10 of the molar value.
Parameter threshold = 7. Response is TRUE when pIC50 meets or exceeds it, else FALSE.

CC(=O)N1CC(Nc2ncnc3[nH]cc(C(=O)c4ccc(Oc5ccccc5)cc4Cl)c23)CCC1CO (racemic): TRUE
CNC(=O)c1cccc(Oc2ccc(C(=O)c3c[nH]c4ncnc(N[C@@H]5CC[C@@H](CO)OC5)c34)cc2)n1: FALSE
CN1[C@H](CO)CCC[C@@H]1CNc1ncnc2[nH]cc(C(=O)c3ccc(Oc4ccccc4)cc3Cl)c12 (racemic) [Compound I-360e]: TRUE
CNC(=O)c1ccc(Oc2ccc(C(=O)c3c[nH]c4ncnc(N[C@@H]5CC[C@@H](CO)OC5)c34)c(Cl)c2)cn1: FALSE
O=C(Nc1cccc(C(=O)c2c[nH]c3ncnc(N[C@@H]4CC[C@@H](CO)OC4)c23)c1)c1ccccc1: FALSE
O=C(Nc1ccc(Cl)c(C(=O)c2c[nH]c3ncnc(N[C@@H]4CC[C@@H](CO)OC4)c23)c1)c1cncs1: FALSE

---

- TEST_SYSTEM: full-length activated BTK (wildtype) (Homo sapiens (Human), UniProt Q06187)
- TEST_NAME: AlphaScreen assay, wild-type BTK
- Type: biochemical
RECORDED_ENDPOINT: IC50

O=C(Nc1ccc(Cl)c(C(=O)c2c[nH]c3ncnc(N[C@@H]4CC[C@@H](CO)OC4)c23)c1)c1nccc2ccccc12 [Compound I-607]: 13.8 nM
CC(=O)N1C[C@H](Nc2ncnc3[nH]cc(C(=O)c4ccc(Oc5ccccc5)cc4Cl)c23)C[C@H]1CO [Compound I-655]: 44.5 nM
O=C(c1ccc(N2CC3(COC3)C2)cc1Cl)c1c[nH]c2ncnc(N[C@@H]3CC[C@@H](CO)OC3)c12 [Compound I-647]: 1440 nM
O=C(c1cc(NC(=O)C2CCOCC2)ccc1Cl)c1c[nH]c2ncnc(N[C@@H]3CC[C@@H](CO)OC3)c12 [Compound I-603]: 466 nM
N#Cc1cccc(NC(=O)c2ccc(C(=O)c3c[nH]c4ncnc(N[C@@H]5CC[C@@H](CO)OC5)c34)c(Cl)c2)c1 [Compound I-614]: 142 nM
CNC(=O)c1cccc(Oc2ccc(C(=O)c3c[nH]c4ncnc(N[C@@H]5CC[C@@H](CO)OC5)c34)c(Cl)c2)n1 [Compound I-319]: 444 nM

---

pIC50: −log10 of the molar value.
Dear all, this message contains pIC50 results, target or system phosphorylated form of full length BTK (active BTK) (Homo sapiens (Human)).
RECORDED_ENDPOINT: pIC50

C[C@@H](O)[C@@H]1CC[C@@H](Nc2ncnc3[nH]cc(C(=O)c4ccc(Oc5cccc(F)c5)cc4Cl)c23)CO1: 8.82
C[C@@H](O)[C@@H]1CC[C@@H](Nc2ncnc3[nH]cc(C(=O)c4ccc(Oc5cccc(Cl)c5)cc4Cl)c23)CO1: 8.66
CN(C)CC(=O)N[C@H]1CC[C@@H](Nc2ncnc3[nH]cc(C(=O)c4ccc(Oc5ccccc5)cc4Cl)c23)CC1: 9.01
O=C(c1ccc(Oc2ccccc2)cc1Cl)c1c[nH]c2ncnc(N[C@H]3C[C@H](CO)C3)c12: 8.39
CC(=O)N[C@@H](C)[C@@H]1CC[C@@H](Nc2ncnc3[nH]cc(C(=O)c4ccccc4Cl)c23)CO1: 8.23
O=C(c1ccc(Oc2ccccc2)cc1Cl)c1c[nH]c2ncnc(N[C@H]3CC[C@H](O)[C@H](O)C3)c12 (racemic): 8.74
N[C@H]1CC[C@@H](Nc2ncnc3[nH]cc(C(=O)c4cccc(Oc5ccccc5)c4)c23)CC1: 8.42

---

Each record here notes measured IC50.
- TEST_SYSTEM: full-length activated BTK (wildtype) (Homo sapiens (Human))
- TEST_NAME: AlphaScreen assay, wild-type BTK
RECORDED_ENDPOINT: IC50

O=C(Nc1cccnc1)c1ccc(C(=O)c2c[nH]c3ncnc(N[C@@H]4CC[C@@H](CO)OC4)c23)c(Cl)c1 [Compound I-256]: 156 nM
Cn1cc(NC(=O)c2ccc(Cl)c(C(=O)c3c[nH]c4ncnc(N[C@@H]5CC[C@@H](CO)OC5)c34)c2)cn1 [Compound I-629]: 89.5 nM
C=CC(=O)N1CCCC1CNc1ncnc2[nH]cc(C(=O)c3ccc(Oc4ccccc4)cc3Cl)c12 (racemic) [Compound I-325r]: 0.98 nM
COc1ccccc1C(=O)NCc1ccc(C(=O)c2c[nH]c3ncnc(N[C@@H]4CC[C@@H](CO)OC4)c23)cc1 [Compound I-652]: 177 nM
C=CS(=O)(=O)N1CCCC(Nc2ncnc3[nH]cc(C(=O)c4ccc(Oc5ccccc5)cc4Cl)c23)C1 (racemic) [Compound I-322r]: 10.4 nM
O=C(c1ccc(Nc2ccccc2)cc1Cl)c1c[nH]c2ncnc(N[C@@H]3CC[C@@H](CO)OC3)c12 [Compound I-650]: 202 nM
O=C(c1cc(C(=O)N2CCCCC2)ccc1Cl)c1c[nH]c2ncnc(N[C@@H]3CC[C@@H](CO)OC3)c12 [Compound I-623]: 124 nM
O=C(c1cc(C(=O)N2CCOCC2)ccc1Cl)c1c[nH]c2ncnc(N[C@@H]3CC[C@@H](CO)OC3)c12 [Compound I-612]: 1630 nM

---

- TEST_SYSTEM: phosphorylated form of full length BTK (active BTK) (Homo sapiens (Human), UniProt Q06187)
pIC50: −log10 of the molar value.
RECORDED_ENDPOINT: pIC50

N[C@H]1C[C@@H](Nc2ncnc3[nH]cc(C(=O)c4ccc(Oc5ccccc5)cc4)c23)C1: 7.77
O=C(c1ccc(Oc2ccccc2)cc1Cl)c1c[nH]c2ncnc(N[C@H]3CC[C@@H](O)[C@@H](O)C3)c12 (racemic): 8.74
C[C@]1(O)CC[C@H](Nc2ncnc3[nH]cc(C(=O)c4ccc(Oc5ccccc5)cc4Cl)c23)CC1: 8.82
CC1(N)CN([C@H]2CC[C@@H](Nc3ncnc4[nH]cc(C(=O)c5ccccc5Cl)c34)CC2)C1: 8.44
C[C@H](O)C(=O)N[C@H]1CC[C@@H](Nc2ncnc3[nH]cc(C(=O)c4ccc(Oc5ccccc5)cc4)c23)CC1: 9.00
C[C@H](O)C(=O)N[C@@H](C)[C@@H]1CC[C@@H](Nc2ncnc3[nH]cc(C(=O)c4ccc(Oc5ccccc5)cc4)c23)CO1: 8.40
CC(=O)NC[C@@H]1CC[C@@H](Nc2ncnc3[nH]cc(C(=O)c4ccccc4Cl)c23)CO1: 8.36

---

- TEST_SYSTEM: full-length activated BTK mutant C481S (Homo sapiens (Human), UniProt Q06187, C481S)
- TEST_NAME: AlphaScreen assay, BTK mutant C481S
- Type: biochemical
Form field: log10 IC50 (one value per entry).
RECORDED_ENDPOINT: log10 IC50 (log10 of the value in µM)

O=C(COCc1ccccc1)Nc1ccc(C(=O)c2c[nH]c3ncnc(N[C@@H]4CC[C@@H](CO)OC4)c23)c(Cl)c1 [Compound I-641]: -1.49
O=C(Nc1ccc(C(=O)c2c[nH]c3ncnc(N[C@@H]4CC[C@@H](CO)OC4)c23)c(Cl)c1)c1ccccc1 [Compound I-276]: -1.24
O=C(Nc1ccccc1)Nc1ccc(Cl)c(C(=O)c2c[nH]c3ncnc(N[C@@H]4CC[C@@H](CO)OC4)c23)c1 [Compound I-608]: -0.73
O=C(c1ccc(Nc2ccccc2)cc1Cl)c1c[nH]c2ncnc(N[C@@H]3CC[C@@H](CO)OC3)c12 [Compound I-650]: -0.49
O=C(Nc1cccnc1)Nc1ccc(Cl)c(C(=O)c2c[nH]c3ncnc(N[C@@H]4CC[C@@H](CO)OC4)c23)c1 [Compound I-609]: -0.28
Cn1cc(NC(=O)c2ccc(Cl)c(C(=O)c3c[nH]c4ncnc(N[C@@H]5CC[C@@H](CO)OC5)c34)c2)cn1 [Compound I-629]: -0.09
CC#CC(=O)N1CCCC(Nc2ncnc3[nH]cc(C(=O)c4ccc(Oc5ccccc5)cc4Cl)c23)C1 (racemic) [Compound I-324r]: -0.98
O=C(Cc1ccccc1)Nc1ccc(C(=O)c2c[nH]c3ncnc(N[C@@H]4CC[C@@H](CO)OC4)c23)c(Cl)c1 [Compound I-639]: -1.59
O=C(Nc1ccccc1)c1ccc(C(=O)c2c[nH]c3ncnc(N[C@@H]4CC[C@@H](CO)OC4)c23)c(Cl)c1 [Compound I-236]: -1.01
O=C(Nc1cccc(C(=O)c2c[nH]c3ncnc(N[C@@H]4CC[C@@H](CO)OC4)c23)c1)c1ccccn1 [Compound I-643]: -0.82
O=C(Nc1ccc(Cl)c(C(=O)c2c[nH]c3ncnc(N[C@@H]4CC[C@@H](CO)OC4)c23)c1)c1nccc2ccccc12 [Compound I-607]: -0.67
O=C(c1ccc(C(=O)N2CCc3ccccc3C2)cc1Cl)c1c[nH]c2ncnc(N[C@@H]3CC[C@@H](CO)OC3)c12 [Compound I-615]: -1.47
CN1[C@H](CO)CCC[C@@H]1CNc1ncnc2[nH]cc(C(=O)c3ccc(Oc4ccccc4)cc3Cl)c12 (racemic) [Compound I-360e]: -1.23
